# measuredOn: LuxG (Photobacterium leiognathi)
# Sequence (P29237 whole entry): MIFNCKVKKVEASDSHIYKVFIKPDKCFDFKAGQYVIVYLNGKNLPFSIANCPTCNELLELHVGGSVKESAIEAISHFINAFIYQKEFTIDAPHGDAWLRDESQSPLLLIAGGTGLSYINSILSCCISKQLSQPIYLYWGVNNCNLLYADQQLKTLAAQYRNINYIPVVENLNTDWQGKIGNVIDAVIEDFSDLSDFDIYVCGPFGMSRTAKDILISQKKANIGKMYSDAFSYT
measuredProperty: Kd (µM)
Form entry: value (µM) — number only.

IN: // map NC(=O)C1=CN([C@@H]2O[C@H](COP(=O)(O)OP(=O)(O)OC[C@H]3O[C@@H](n4cnc5c(N)ncnc54)[C@H](O)[C@@H]3O)[C@@H](O)[C@H]2O)C=CC1 [NADH] to recorded Kd (system: LuxG (Photobacterium leiognathi))
OUT: 25
